Recorded self-cleavage kobs at 2500 uM GlcN6P for the following variants
B1: glmS ribozyme (parent)
chain: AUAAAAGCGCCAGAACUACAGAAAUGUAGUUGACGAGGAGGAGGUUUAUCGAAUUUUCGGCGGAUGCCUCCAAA

Variants of: B1
Experiment Summary: self-cleavage kobs at 2500 uM GlcN6P; higher = faster cleavage; RNA array
Cond: with glucosamine-6-phosphate
Fewer inactive variants are shown than the library holds.
Property Label: self-cleavage kobs at 2500 uM GlcN6P (s⁻¹)

Mutation: G13U A39C
Property Label: self-cleavage kobs at 2500 uM GlcN6P
Unit Abbreviation: s⁻¹
Result Comparator: =
Numeric Value: 8.65e-05

Mutation: G29C U47A
Property Label: self-cleavage kobs at 2500 uM GlcN6P
Unit Abbreviation: s⁻¹
Result Comparator: =
Numeric Value: 0.000579

Mutation: A14G U56G U57C
Property Label: self-cleavage kobs at 2500 uM GlcN6P
Unit Abbreviation: s⁻¹
Result Comparator: =
Numeric Value: 0.000269

Mutation: A6G A15C A64C
Property Label: self-cleavage kobs at 2500 uM GlcN6P
Unit Abbreviation: s⁻¹
Result Comparator: <
Numeric Value: 1e-05

Mutation: A52U C67U
Property Label: self-cleavage kobs at 2500 uM GlcN6P
Unit Abbreviation: s⁻¹
Result Comparator: =
Numeric Value: 0.000163

Mutation: A14G U31A C67G
Property Label: self-cleavage kobs at 2500 uM GlcN6P
Unit Abbreviation: s⁻¹
Result Comparator: =
Numeric Value: 0.000368

Mutation: G7A C50G G63C
Property Label: self-cleavage kobs at 2500 uM GlcN6P
Unit Abbreviation: s⁻¹
Result Comparator: =
Numeric Value: 0.000242

Mutation: C10A C34G C68G
Property Label: self-cleavage kobs at 2500 uM GlcN6P
Unit Abbreviation: s⁻¹
Result Comparator: <
Numeric Value: 1e-05

Mutation: A42C U65G U69G
Property Label: self-cleavage kobs at 2500 uM GlcN6P
Unit Abbreviation: s⁻¹
Result Comparator: =
Numeric Value: 0.00302

Mutation: A14U U30G U69G C71G
Property Label: self-cleavage kobs at 2500 uM GlcN6P
Unit Abbreviation: s⁻¹
Result Comparator: =
Numeric Value: 0.00026

Mutation: G7C G41U
Property Label: self-cleavage kobs at 2500 uM GlcN6P
Unit Abbreviation: s⁻¹
Result Comparator: <
Numeric Value: 1e-05

Mutation: G60U A64U C68U
Property Label: self-cleavage kobs at 2500 uM GlcN6P
Unit Abbreviation: s⁻¹
Result Comparator: <
Numeric Value: 1e-05

Mutation: C50G G60C U69A
Property Label: self-cleavage kobs at 2500 uM GlcN6P
Unit Abbreviation: s⁻¹
Result Comparator: =
Numeric Value: 0.000146

Mutation: G13C A15G
Property Label: self-cleavage kobs at 2500 uM GlcN6P
Unit Abbreviation: s⁻¹
Result Comparator: =
Numeric Value: 9.91e-05

Mutation: A52G U69G C70U
Property Label: self-cleavage kobs at 2500 uM GlcN6P
Unit Abbreviation: s⁻¹
Result Comparator: =
Numeric Value: 7.59e-05

Mutation: U47A G62U
Property Label: self-cleavage kobs at 2500 uM GlcN6P
Unit Abbreviation: s⁻¹
Result Comparator: <
Numeric Value: 1e-05

Mutation: G35C A36U
Property Label: self-cleavage kobs at 2500 uM GlcN6P
Unit Abbreviation: s⁻¹
Result Comparator: <
Numeric Value: 1e-05

Mutation: C50U A52G C70A
Property Label: self-cleavage kobs at 2500 uM GlcN6P
Unit Abbreviation: s⁻¹
Result Comparator: =
Numeric Value: 6.9e-05

Mutation: U30C G35U U65C
Property Label: self-cleavage kobs at 2500 uM GlcN6P
Unit Abbreviation: s⁻¹
Result Comparator: <
Numeric Value: 1e-05

Mutation: A39U A48U U55C G59U
Property Label: self-cleavage kobs at 2500 uM GlcN6P
Unit Abbreviation: s⁻¹
Result Comparator: <
Numeric Value: 1e-05

Mutation: C34U G37A A39G
Property Label: self-cleavage kobs at 2500 uM GlcN6P
Unit Abbreviation: s⁻¹
Result Comparator: <
Numeric Value: 1e-05

Mutation: G38C A39C U45A
Property Label: self-cleavage kobs at 2500 uM GlcN6P
Unit Abbreviation: s⁻¹
Result Comparator: <
Numeric Value: 1e-05

Mutation: A52G U56A
Property Label: self-cleavage kobs at 2500 uM GlcN6P
Unit Abbreviation: s⁻¹
Result Comparator: =
Numeric Value: 0.000441

Mutation: U31G G38C G44A
Property Label: self-cleavage kobs at 2500 uM GlcN6P
Unit Abbreviation: s⁻¹
Result Comparator: <
Numeric Value: 1e-05

Mutation: U54G C58G
Property Label: self-cleavage kobs at 2500 uM GlcN6P
Unit Abbreviation: s⁻¹
Result Comparator: =
Numeric Value: 9.35e-05

Mutation: C8U G29U
Property Label: self-cleavage kobs at 2500 uM GlcN6P
Unit Abbreviation: s⁻¹
Result Comparator: <
Numeric Value: 1e-05

Mutation: C58A G60U
Property Label: self-cleavage kobs at 2500 uM GlcN6P
Unit Abbreviation: s⁻¹
Result Comparator: <
Numeric Value: 1e-05

Mutation: U30G A39U
Property Label: self-cleavage kobs at 2500 uM GlcN6P
Unit Abbreviation: s⁻¹
Result Comparator: =
Numeric Value: 0.00224

Mutation: A15C A52U
Property Label: self-cleavage kobs at 2500 uM GlcN6P
Unit Abbreviation: s⁻¹
Result Comparator: =
Numeric Value: 6.2e-05

Mutation: A33C C70G
Property Label: self-cleavage kobs at 2500 uM GlcN6P
Unit Abbreviation: s⁻¹
Result Comparator: <
Numeric Value: 1e-05

Mutation: G9U U31G G44U C61U
Property Label: self-cleavage kobs at 2500 uM GlcN6P
Unit Abbreviation: s⁻¹
Result Comparator: <
Numeric Value: 1e-05

Mutation: U55C C58G
Property Label: self-cleavage kobs at 2500 uM GlcN6P
Unit Abbreviation: s⁻¹
Result Comparator: =
Numeric Value: 3.85e-05

Mutation: A15G G44C G59U
Property Label: self-cleavage kobs at 2500 uM GlcN6P
Unit Abbreviation: s⁻¹
Result Comparator: <
Numeric Value: 1e-05

Mutation: A14U A39U
Property Label: self-cleavage kobs at 2500 uM GlcN6P
Unit Abbreviation: s⁻¹
Result Comparator: =
Numeric Value: 0.00346

Mutation: C8A C11U A15U C50G U56A G63A
Property Label: self-cleavage kobs at 2500 uM GlcN6P
Unit Abbreviation: s⁻¹
Result Comparator: =
Numeric Value: 0.000104

Mutation: A39U U69C
Property Label: self-cleavage kobs at 2500 uM GlcN6P
Unit Abbreviation: s⁻¹
Result Comparator: =
Numeric Value: 0.0075

Mutation: C8A G32U G37U
Property Label: self-cleavage kobs at 2500 uM GlcN6P
Unit Abbreviation: s⁻¹
Result Comparator: <
Numeric Value: 1e-05

Mutation: G13U G41C A42U U65C
Property Label: self-cleavage kobs at 2500 uM GlcN6P
Unit Abbreviation: s⁻¹
Result Comparator: <
Numeric Value: 1e-05

Mutation: C8A G60U
Property Label: self-cleavage kobs at 2500 uM GlcN6P
Unit Abbreviation: s⁻¹
Result Comparator: <
Numeric Value: 1e-05

Mutation: A6U G7C C8G
Property Label: self-cleavage kobs at 2500 uM GlcN6P
Unit Abbreviation: s⁻¹
Result Comparator: <
Numeric Value: 1e-05

Mutation: A14C G29U A53G U65G
Property Label: self-cleavage kobs at 2500 uM GlcN6P
Unit Abbreviation: s⁻¹
Result Comparator: =
Numeric Value: 6.14e-05

Mutation: A64G C70U
Property Label: self-cleavage kobs at 2500 uM GlcN6P
Unit Abbreviation: s⁻¹
Result Comparator: =
Numeric Value: 0.00162

Mutation: G32A C70U
Property Label: self-cleavage kobs at 2500 uM GlcN6P
Unit Abbreviation: s⁻¹
Result Comparator: =
Numeric Value: 0.000902

Mutation: G13U U47C
Property Label: self-cleavage kobs at 2500 uM GlcN6P
Unit Abbreviation: s⁻¹
Result Comparator: =
Numeric Value: 4.74e-05

Mutation: G13A G44U A64U
Property Label: self-cleavage kobs at 2500 uM GlcN6P
Unit Abbreviation: s⁻¹
Result Comparator: <
Numeric Value: 1e-05
